Each entry below carries its reported binding affinity % of 1D2.
- tgt: T1, recombinant human GM-CSF (human, UniProt P04141 18-144)
- T1 construct: also called rhGM-CSF; CSF2
- assay-details: ELISA on coated rhGM-CSF, UBA relative to 1D2
- Description: Some of the residues in the CDRs are essential for epitope binding affinity and/or specificity. A number of computational methods were developed to detect these functional residues, generally known as ‘specificity-determining resides’ (SDRs). […] The ELISA assay was developed with 100 μl developing buffer containing H₂O₂-Amplx Red per well in the dark for 5 min and the fluorescence intensity was read at Ex.530/Em.590 nm, with cutoff at 570 nm. […]
Hi! Could you send only the number? It should be in %, unit omitted.

• 1D2 SDR mutant HY102L (antibody, IgG1, V domains shown, also called X5 L) VH: QVQLVQSGAEVKKPGASVKVSCEASGYTFTDKYLHWVRQAPGQGLEWMAWINPKSGGTFYAQNFKGRVTVTRDTSINTAYLELTSLRLDDTSTYYCARGRDLYDQGAADLWGQGTMVTVSS VL: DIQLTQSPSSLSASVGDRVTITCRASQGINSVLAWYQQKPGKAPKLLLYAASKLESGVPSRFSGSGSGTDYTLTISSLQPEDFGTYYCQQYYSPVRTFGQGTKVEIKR = 86
• 1D2 SDR mutant HK32F (antibody, IgG1, V domains shown, also called X2 F) VH: QVQLVQSGAEVKKPGASVKVSCEASGYTFTDFYLHWVRQAPGQGLEWMAWINPKSGGTFYAQNFKGRVTVTRDTSINTAYLELTSLRLDDTSTYYCARGRDYYDQGAADLWGQGTMVTVSS VL: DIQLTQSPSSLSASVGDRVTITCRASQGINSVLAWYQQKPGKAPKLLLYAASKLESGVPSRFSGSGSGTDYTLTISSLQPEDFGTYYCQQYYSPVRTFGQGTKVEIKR = 63
• 1D2 SDR mutant HK32H (antibody, IgG1, V domains shown, also called X2 H) VH: QVQLVQSGAEVKKPGASVKVSCEASGYTFTDHYLHWVRQAPGQGLEWMAWINPKSGGTFYAQNFKGRVTVTRDTSINTAYLELTSLRLDDTSTYYCARGRDYYDQGAADLWGQGTMVTVSS VL: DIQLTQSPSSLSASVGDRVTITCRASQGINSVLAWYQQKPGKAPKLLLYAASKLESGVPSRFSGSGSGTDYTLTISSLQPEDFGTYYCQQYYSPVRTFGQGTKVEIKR = 76

Entry 1D2 SDR mutant LV32P (antibody, IgG1, V domains shown, also called X8 P) VH: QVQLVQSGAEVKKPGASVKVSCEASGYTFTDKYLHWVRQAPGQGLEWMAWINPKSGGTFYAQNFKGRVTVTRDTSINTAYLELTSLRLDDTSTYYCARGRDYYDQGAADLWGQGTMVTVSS VL: DIQLTQSPSSLSASVGDRVTITCRASQGINSPLAWYQQKPGKAPKLLLYAASKLESGVPSRFSGSGSGTDYTLTISSLQPEDFGTYYCQQYYSPVRTFGQGTKVEIKR needs its binding affinity % of 1D2 filled in; supply it. 581

Determine its reported binding affinity % of 1D2: 1D2 SDR mutant HR100L (antibody, IgG1, V domains shown, also called X4 L) VH: QVQLVQSGAEVKKPGASVKVSCEASGYTFTDKYLHWVRQAPGQGLEWMAWINPKSGGTFYAQNFKGRVTVTRDTSINTAYLELTSLRLDDTSTYYCARGLDYYDQGAADLWGQGTMVTVSS VL: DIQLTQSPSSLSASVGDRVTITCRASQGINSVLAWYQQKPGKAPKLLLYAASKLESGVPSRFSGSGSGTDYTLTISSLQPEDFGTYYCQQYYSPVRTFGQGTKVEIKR 69
